Sourced from paper PMC6615598

assay: Stability in mouse serum (half-life); format: in vitro ADME; conditions: 25% mouse serum, pre-incubated 15 min at 37°C, peptide 10^−4 M, RP-HPLC peak areas, mean of biological triplicates
Starred links: 1 amine or outer side, 2 acyl side, 3 side chain; linkers in the order of their positions; H or OH if unused. Non-standard residues stand in square brackets, D forms with d. Residues, ends and D or L forms follow the SMILES beside them. azaβ3(1Nal) = O=C(CN(Cc1cccc2ccccc12)N[*:1])[*:2]
Measured Property: half-life (h)
Hi! Could you send only the number? It should be in h, unit omitted.

Compound	Measured Property	Readout Value
CC(C)[C@@H]1NC(=O)[C@H](CCCNC(=N)N)NC(=O)[C@H](CCCNC(=N)N)NC(=O)[C@H](Cc2c[nH]c3ccccc23)NC(=O)[C@H](Cc2ccccc2)NC(=O)[C@H](Cc2ccccc2)NC(=O)[C@H](CCCCN)NC1=O [Pep18] (cyclo(FFWRRVK))	half-life	8.5

Kindly consider the entry below.
Q: Item CC(C)[C@@H]1NC(=O)[C@H](CCCNC(=N)N)NC(=O)[C@H](CCCNC(=N)N)NC(=O)CN(Cc2cccc3ccccc23)NC(=O)[C@H](Cc2ccccc2)NC(=O)CN(Cc2cccc3ccccc23)NC(=O)[C@H](CCCCN)NC1=O [Pep19] (cyclo([azaβ3(1Nal)]F[azaβ3(1Nal)]RRVK)) : provide half-life
Result: 9

====

tested on: MRSA (Mu3); test: microbe, parasite or virus in culture; conditions: MRSA (Mu3), d14 of serial passages at sub-MIC
Starred links: 1 amine or outer side, 2 acyl side, 3 side chain; linkers in the order of their positions; H or OH if unused. Non-standard residues stand in square brackets, D forms with d. Residues, ends and D or L forms follow the SMILES beside them. azaβ3(1Nal) = O=C(CN(Cc1cccc2ccccc12)N[*:1])[*:2]
Measured Property: MIC

Worked examples, 3 compounds total:
Compound	MIC
CO[C@H]1/C=C/O[C@@]2(C)Oc3c(C)c(O)c4c(O)c(c(/C=N/N5CCN(C)CC5)c(O)c4c3C2=O)NC(=O)/C(C)=C\C=C\[C@H](C)[C@H](O)[C@@H](C)[C@@H](O)[C@@H](C)[C@H](OC(C)=O)[C@@H]1C	1,024 (843) μM
CC(C)[C@@H]1NC(=O)[C@H](CCCNC(=N)N)NC(=O)[C@H](CCCNC(=N)N)NC(=O)CN(Cc2cccc3ccccc23)NC(=O)[C@H](Cc2ccccc2)NC(=O)CN(Cc2cccc3ccccc23)NC(=O)[C@H](CCCCN)NC1=O [Pep19] (cyclo([azaβ3(1Nal)]F[azaβ3(1Nal)]RRVK))	8 (8.8) μM
CN[C@H](CC(C)C)C(=O)N[C@H]1C(=O)N[C@@H](CC(N)=O)C(=O)N[C@H]2C(=O)N[C@H]3C(=O)N[C@H](C(=O)N[C@H](C(=O)O)c4cc(O)cc(O)c4-c4cc3ccc4O)[C@H](O)c3ccc(c(Cl)c3)Oc3cc2cc(c3O[C@@H]2O[C@H](CO)[C@@H](O)[C@H](O)[C@H]2O[C@H]2C[C@](C)(N)[C@H](O)[C@H](C)O2)Oc2ccc(cc2Cl)[C@H]1O	1 (1.4) μM

Kindly consider the entry below.
Q: Item CC(C)[C@@H]1NC(=O)[C@H](CCCNC(=N)N)NC(=O)[C@H](CCCNC(=N)N)NC(=O)[C@H](Cc2c[nH]c3ccccc23)NC(=O)[C@H](Cc2ccccc2)NC(=O)[C@H](Cc2ccccc2)NC(=O)[C@H](CCCCN)NC1=O [Pep18] (cyclo(FFWRRVK)) : provide MIC
Result: 16 (16.4) μM
